Assay: Cytotoxicity against Homo sapiens (human) KYSE-150 cells assessed as inhibition of cell survival after 24 hr by MTT assay
Type: functional, cell-based
Details: KYSE-150, 24 h
pIC50: −log10 of the molar value.
As shown below, each of these molecules has a reported pIC50 value.

molecule	value_qualifier	pIC50
Cc1ccc(NC(c2ccco2)P(=O)(Oc2ccccc2)Oc2ccccc2)cc1 (stereo unspecified)	<	3.40
Cc1cccc(/N=C/c2ccco2)c1 [N-FURFURYLIDENE-M-TOLUIDINE]	=	4.30
COc1ccccc1/N=C/c1ccco1 [N-FURFURYLIDENE-O-ANISIDINE]	<	3.40
COc1ccc(NC(c2ccco2)P(=O)(OC)OC)cc1 (stereo unspecified)	=	3.78
Cc1cccc(NC(c2ccco2)P(=O)(Oc2ccccc2)Oc2ccccc2)c1 (stereo unspecified)	<	3.40
Cc1ccccc1NC(c1ccco1)P(=O)(Oc1ccccc1)Oc1ccccc1 (stereo unspecified)	<	3.40
COc1ccc(/N=C/c2ccco2)cc1 [N-FURFURYLIDENE-P-ANISIDINE]	<	3.40
COc1cccc(NC(c2ccco2)P(=O)(OCc2ccccc2)OCc2ccccc2)c1 (stereo unspecified)	=	3.70
COc1ccccc1NC(c1ccco1)P(=O)(OC)OC (stereo unspecified)	=	4.29
COc1ccc(NC(c2ccco2)P(=O)(Oc2ccccc2)Oc2ccccc2)cc1 (stereo unspecified)	=	3.68
Cc1ccc(/N=C\c2ccco2)cc1 [N-FURFURYLIDENE-P-TOLUIDINE]	=	3.42
